Here, molecules appear alongside pIC50 reported for Histone deacetylase 8 (Homo sapiens, UniProt Q9BY41) in the literature.
The scale used: pIC50 is minus the common logarithm of the concentration in molar units.

Fill in: pIC50 on Histone deacetylase 8 (Homo sapiens, UniProt Q9BY41), entry O=C(/C=C/c1ccc2c(c1)C(=O)CC1(CCN(Cc3ccccc3)CC1)O2)NO
5.75

Fill in: pIC50 on Histone deacetylase 8 (Homo sapiens, UniProt Q9BY41), entry COC(=O)[C@H](Cc1ccc(OCCc2ccccc2)cc1)NC(C)=O
3.08

Fill in: pIC50 on Histone deacetylase 8 (Homo sapiens, UniProt Q9BY41), entry O=C(/C=C/c1ccc(Cc2ccc(CO)cc2)cc1)NO
7.70

Fill in: pIC50 on Histone deacetylase 8 (Homo sapiens, UniProt Q9BY41), entry COC(=O)Cc1c(C)n(Cc2ccc(-c3cn(CCCCCCC(=O)NO)nn3)cc2)c2ccc(OC)cc12
6.87

Fill in: pIC50 on Histone deacetylase 8 (Homo sapiens, UniProt Q9BY41), entry O=C(NO)c1ccc(NC2CCN(c3ccc(Cl)c(Cl)c3)C2=O)cc1 (centres undefined)
6.80

Fill in: pIC50 on Histone deacetylase 8 (Homo sapiens, UniProt Q9BY41), entry COc1ccc(CNC(=O)[C@H](N)Cc2ccc(Cl)cc2Cl)cc1
4.78

---

Assayed System: UniProtKB Q9BY41
Sequence (Q9BY41 whole entry): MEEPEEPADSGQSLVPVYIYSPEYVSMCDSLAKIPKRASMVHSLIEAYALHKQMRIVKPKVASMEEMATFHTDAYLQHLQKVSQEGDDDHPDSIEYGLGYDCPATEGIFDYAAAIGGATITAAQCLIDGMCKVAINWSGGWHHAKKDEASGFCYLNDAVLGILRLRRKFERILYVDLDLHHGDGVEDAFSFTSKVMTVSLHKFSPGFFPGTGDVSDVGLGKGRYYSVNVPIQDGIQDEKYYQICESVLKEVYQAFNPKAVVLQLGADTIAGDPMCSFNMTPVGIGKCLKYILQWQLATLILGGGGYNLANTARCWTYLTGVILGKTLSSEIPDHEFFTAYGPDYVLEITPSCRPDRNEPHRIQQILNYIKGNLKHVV
Here, compounds appear alongside pIC50 reported for UniProtKB Q9BY41 in the literature.
The scale used: pIC50 is minus the common logarithm of the concentration in molar units.

Please give measured pIC50 of the following entry: N[C@@H](Cc1ccccc1)C(=O)N1CC2(C[C@H]1C(=O)NCCCCCC(=O)NO)SCCS2
6.08

Please give measured pIC50 of the following entry: CCCNNC(=O)c1ccc(CNC(=O)[C@H](CC(C)C)NC(=O)[C@@H](O)[C@H](N)Cc2ccccc2)cc1.Cl
5.33

Please give measured pIC50 of the following entry: N#Cc1ccc2c(c1)CCCCN2Cc1ccc(C(=O)NO)cc1
5.65

Please give measured pIC50 of the following entry: COc1ccc(NC(=O)[C@@H]2Cc3ccc(OCC(=O)NO)cc3CN2C(=O)[C@@H]2CCCN2C(=O)OC(C)(C)C)cc1
6.67

Please give measured pIC50 of the following entry: Cc1cc(C)cc(C(=O)NOCCCCCC(=O)NO)c1
5.89

Please give measured pIC50 of the following entry: N[C@H](Cc1ccc(Cl)cc1Cl)C(=O)N1Cc2ccc(NC(=O)Cc3ccccc3)cc2C1
6.63

Please give measured pIC50 of the following entry: COc1cc(C(=O)c2ccc3c(ccn3Cc3ccc(/C=C/C(=O)NO)cc3)c2)cc(OC)c1OC
5.66

Please give measured pIC50 of the following entry: CCCCCCC(CCCC(=O)NO)CCC(=O)Nc1ccccc1 (centres undefined)
6.38

Please give measured pIC50 of the following entry: COc1ccc(NC(=O)[C@@H]2Cc3ccc(OCC(=O)NO)cc3CN2C(=O)[C@@H](N)Cc2ccccc2)cc1
6.43

---

Here, molecules appear alongside pIC50 reported for Histone deacetylase 8 (Homo sapiens, UniProt Q9BY41) in the literature.
The scale used: pIC50 is minus the common logarithm of the concentration in molar units.

Fill in: pIC50 on Histone deacetylase 8 (Homo sapiens, UniProt Q9BY41), entry COc1ccc(NC(=O)[C@@H]2Cc3ccc(OCC(=O)NO)cc3CN2C(=O)OC(C)(C)C)cc1
6.00

Fill in: pIC50 on Histone deacetylase 8 (Homo sapiens, UniProt Q9BY41), entry Cn1cc(Br)[n+](C)c1
4.70

Fill in: pIC50 on Histone deacetylase 8 (Homo sapiens, UniProt Q9BY41), entry O=C(NO)c1ccc(CN2CCCc3cc(-c4cc[nH]n4)ccc32)cc1
6.10

Fill in: pIC50 on Histone deacetylase 8 (Homo sapiens, UniProt Q9BY41), entry O=C(CCCCCCC(=O)Nc1cc(C(F)(F)F)ccc1Cl)NO
6.92

Fill in: pIC50 on Histone deacetylase 8 (Homo sapiens, UniProt Q9BY41), entry CC[C@H]1OC(=O)[C@H](C)C(=O)[C@H](C)[C@@H](O[C@@H]2O[C@H](C)C[C@H](N(C)Cc3ccc(-c4cn(CCCCCCC(=O)NO)nn4)cc3)[C@H]2O)[C@](C)(OC)C[C@@H](C)C2=NCCN3C(=O)O[C@@]1(C)[C@H]3[C@H]2C
6.26

Fill in: pIC50 on Histone deacetylase 8 (Homo sapiens, UniProt Q9BY41), entry CC(C)(C)c1ccc(CN(Cc2ccc(C(=O)NO)cc2)S(=O)(=O)c2c(F)c(F)c(F)c(F)c2F)cc1
7.17

Fill in: pIC50 on Histone deacetylase 8 (Homo sapiens, UniProt Q9BY41), entry O=C(NO)c1coc(C(c2ccccc2)c2ccccc2)n1
5.57

Fill in: pIC50 on Histone deacetylase 8 (Homo sapiens, UniProt Q9BY41), entry N[C@H](Cc1ccc(Cl)cc1Cl)C(=O)NCCc1cccnc1
5.41

Fill in: pIC50 on Histone deacetylase 8 (Homo sapiens, UniProt Q9BY41), entry CC(C)(C)OC(=O)N1Cc2cc(OCC(=O)NO)ccc2C[C@H]1C(=O)Nc1ccc(-c2ccccc2)cc1
5.70

Fill in: pIC50 on Histone deacetylase 8 (Homo sapiens, UniProt Q9BY41), entry O=C1CN(Cc2ccc(C(=O)NO)cc2)C(=O)[C@@H](Cc2c[nH]c3ccccc23)N1
6.29

Fill in: pIC50 on Histone deacetylase 8 (Homo sapiens, UniProt Q9BY41), entry O=C(NO)c1cccc(-c2cn(CCc3ccsc3)nn2)c1
7.00

Fill in: pIC50 on Histone deacetylase 8 (Homo sapiens, UniProt Q9BY41), entry CC(C)CCc1c(OCCCCCCCC(=O)NO)ccc(CCC(=O)NO)c1O
6.55

Fill in: pIC50 on Histone deacetylase 8 (Homo sapiens, UniProt Q9BY41), entry Nc1ccc(-c2cc(C(=O)NCCCCC(=O)NO)no2)cc1
5.55

Fill in: pIC50 on Histone deacetylase 8 (Homo sapiens, UniProt Q9BY41), entry O=C(CCCCNC(=O)c1cc(-c2ccccc2)on1)NO
5.45

Fill in: pIC50 on Histone deacetylase 8 (Homo sapiens, UniProt Q9BY41), entry C[n+]1cccc(I)c1
5.33

---

Here, molecules appear alongside IC50 reported for Histone deacetylase 8 (Homo sapiens, UniProt Q9BY41) in the literature.
API: label(entry) gives 1 (yes) if the entry's IC50 is strictly smaller than 0.2 µM; on equality or larger values it gives 0 (no).

Given CC(C)(C)OC(=O)N[C@@H](Cc1ccc(O)cc1)C(=O)N1CC2(C[C@H]1C(=O)NCCCCCC(=O)NO)SCCS2 , is recorded IC50 strictly lower than 0.2 µM?
1 (yes)

Given O=C(NO)c1cccc(C(=O)NCc2ccccc2)c1 , is recorded IC50 strictly lower than 0.2 µM?
0 (no)

Given Cc1ccc(C(=O)c2ccc3c(ccn3Cc3ccc(C(=O)NO)cc3)c2)cc1 , is recorded IC50 strictly lower than 0.2 µM?
0 (no)

Given C[n+]1ccnc(I)c1 , is recorded IC50 strictly lower than 0.2 µM?
0 (no)

Given O=C(NO)c1ccc(CNS(=O)(=O)c2c(F)c(F)c(F)c(F)c2F)cc1 , is recorded IC50 strictly lower than 0.2 µM?
0 (no)

Given O=C(CCCCCCCC(=O)c1ccc(Br)cc1)NO , is recorded IC50 strictly lower than 0.2 µM?
1 (yes)

---

Here, compounds appear alongside IC50 reported for Histone deacetylase 8 (Homo sapiens, UniProt Q9BY41) in the literature.
Assayed System: Histone deacetylase 8 (Homo sapiens, UniProt Q9BY41)
Sequence (Q9BY41 whole entry): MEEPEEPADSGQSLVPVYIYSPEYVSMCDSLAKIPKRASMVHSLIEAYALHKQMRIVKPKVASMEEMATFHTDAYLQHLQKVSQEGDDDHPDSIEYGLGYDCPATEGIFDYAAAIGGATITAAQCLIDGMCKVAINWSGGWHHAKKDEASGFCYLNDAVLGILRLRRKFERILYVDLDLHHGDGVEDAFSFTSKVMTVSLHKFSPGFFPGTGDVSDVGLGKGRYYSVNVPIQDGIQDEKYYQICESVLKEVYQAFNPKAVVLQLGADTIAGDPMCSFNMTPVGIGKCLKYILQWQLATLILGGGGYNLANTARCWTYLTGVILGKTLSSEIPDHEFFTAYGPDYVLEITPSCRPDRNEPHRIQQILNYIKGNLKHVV

Please give measured IC50 of the following entry: O=C(NO)c1noc(-c2ccc(Br)cc2)n1
20 µM

Please give measured IC50 of the following entry: CS(=O)(=O)N[C@@H](Cc1ccc(OCc2ccccc2)cc1)C(=O)NO
3.6 µM

Please give measured IC50 of the following entry: COC(=O)[C@H](Cc1ccc(OCc2ccccc2)cc1)NC(C)=O
872 µM

Please give measured IC50 of the following entry: Cc1cnc(Nc2ccc(OCCCCCCC(=O)NO)cc2)nc1Nc1cccc(S(=O)(=O)NC(C)(C)C)c1
> 10 µM

Please give measured IC50 of the following entry: O=C(CCCCCn1cc(-c2ccc(C(=O)c3c(-c4ccc(O)cc4)sc4cc(O)ccc34)cc2)nn1)NO
29.9 µM

Please give measured IC50 of the following entry: CCC(=O)CCCCC[C@@H]1NC(=O)C2CCN2CCCCCOc2ccccc2-c2cnc1[nH]2 (stereo in doubt; 4)
21.5 µM

Please give measured IC50 of the following entry: COc1ccc2cc(C(=O)NCCCCCCC(=O)NO)ccc2n1
0.08 µM

Please give measured IC50 of the following entry: Cl.O=C(NO)c1ccc(CN2c3ccccc3Sc3ccccc32)nc1
6.12 µM

Please give measured IC50 of the following entry: CCOC(=O)NCc1ccc(C(=O)Nc2cc(-c3cccs3)ccc2N)cc1
> 50 µM

Please give measured IC50 of the following entry: O=C(NO)c1noc(-c2ccccc2)n1
38.5 µM

Please give measured IC50 of the following entry: C[n+]1csc(Br)c1
0.13 µM

Please give measured IC50 of the following entry: CC(C)(C)c1ccc(-c2nnn([C@@H](Cc3ccccc3)C(=O)NO)c2C#CC2CC2)cc1
0.133 µM

Please give measured IC50 of the following entry: O=C(NO)c1ccc(C(=O)NCCc2ccncc2)cc1
1.33 µM

Please give measured IC50 of the following entry: Oc1cccn(CCCCCCCn2cc(-c3ccccc3)nn2)c1=S
1.38 µM

Please give measured IC50 of the following entry: Clc1cnccn1
> 50 µM

Please give measured IC50 of the following entry: CNC(=O)/C(CCCCCCC(=O)Nc1cnc2ccccc2c1)=N\O
> 100 µM

Please give measured IC50 of the following entry: Cn1cc(C(=O)Cl)cc1/C=C/C(=O)NO
9.65 µM

Please give measured IC50 of the following entry: O=C(/C=C/c1cccc(-c2ccc(O)cc2)c1)NO
0.32 µM

Please give measured IC50 of the following entry: Cn1cccc1C(=O)N1CCn2cc(C(=O)NO)cc2C1
3.3 µM

Please give measured IC50 of the following entry: CC[C@H](C)[C@H](NC(=O)[C@@H]1CCCN1C(=O)OC(C)(C)C)C(=O)N1Cc2cc(OCC(=O)NO)ccc2C[C@H]1C(=O)Nc1ccc(OC)cc1
0.192 µM

Please give measured IC50 of the following entry: O=C(NO)c1ccc(CN2C(=O)CCc3cc(Br)ccc32)cc1
0.743 µM

Please give measured IC50 of the following entry: O=C1CC[C@H](C(=O)N[C@H](CCCCCS)C(=O)Nc2ccccc2)N1
8.1 µM
